assay target: TEAD3 (Homo sapiens, UniProt Q99594)
Sequence (Q99594 whole entry, species assumed): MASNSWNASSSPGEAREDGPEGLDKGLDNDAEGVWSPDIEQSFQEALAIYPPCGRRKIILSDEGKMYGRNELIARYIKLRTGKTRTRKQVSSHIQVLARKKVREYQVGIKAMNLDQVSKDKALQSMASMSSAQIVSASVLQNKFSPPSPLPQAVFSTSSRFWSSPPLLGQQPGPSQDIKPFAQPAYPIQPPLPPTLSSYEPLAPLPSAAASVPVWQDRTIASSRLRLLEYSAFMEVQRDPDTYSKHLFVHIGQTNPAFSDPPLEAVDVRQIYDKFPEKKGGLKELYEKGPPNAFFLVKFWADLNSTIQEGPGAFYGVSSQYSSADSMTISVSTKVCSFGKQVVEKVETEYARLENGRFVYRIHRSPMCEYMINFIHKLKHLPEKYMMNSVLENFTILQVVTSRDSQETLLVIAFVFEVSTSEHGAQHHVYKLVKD
experimental details: TEAD lipid assay (Lipid FP, Bodipy-C16 probe displacement)
Format: binding
condition set: fluorescence polarization, His-tagged TEAD, 60 minutes incubation
Description: A TEAD lipid assay was done according to the following method. His-tagged TEAD proteins were pre-incubated with a Bodipy-C16 FP probe (Life Technologies Cat #D3821) for 30 minutes at room temperature to pre-form TEAD-probe complex. […] Duplicate 10 point dose response curves were generated for each test compound. The potency of compounds as TEAD lipid pocket binders was determined by IC50 value generated using a non-linear 4 parameter curve fit.
Items are presented alongside their recorded pIC50.
API: returns pIC50 as number; meaning -log10 of concentration in mol/L.

1) COc1ccc(NS(C)(=O)=O)cc1/C=C/C1CCCCC1 [Compound 27]	5.92
2) COc1ccc(NS(=O)(=O)C2CC2)cc1-c1ccc(C(C)C)cc1 [Compound 25]	5.92
3) COc1ncc(C(=O)NC(C)CCO)cc1/C=C/c1ccc(Cl)cc1 (single isomer, unassigned) [Compound 19]	5.80
4) COc1nc(F)c(NS(C)(=O)=O)cc1/C=C/C1CCCCC1 [Compound 38]	5.70

## Input Query pIC50 on TEAD3 (Homo sapiens, UniProt Q99594) for COc1ncc(NS(C)(=O)=O)cc1/C=C/C1CC2(CC2)C1 [Compound 17]
## Output 5.74

## Input # value lookup — system TEAD3 (Homo sapiens, UniProt Q99594), readout pIC50, item COc1ncc(NS(C)(=O)=O)cc1/C=C/C1CC(C(F)(F)F)C1 (racemic) [Compound 37]
## Output 5.89

## Input So what pIC50 did COc1nnc(NS(C)(=O)=O)cc1/C=C/C1CCC(C(F)(F)F)CC1 (centres unmarked) [Compound 45] get with TEAD3 (Homo sapiens, UniProt Q99594)?
## Output 5.77

## Input API: value(readout=pIC50, system=TEAD3 (Homo sapiens, UniProt Q99594)) for record CC[C@H](CO)NC(=O)c1cc(/C=C/[C@H]2CC[C@H](C(F)(F)F)CC2)c(OC)nn1 [Compound 46]
## Output 5.80

## Input State its pIC50 on TEAD3 (Homo sapiens, UniProt Q99594): Cn1cc(Cc2ccc(Cl)cc2)c2cc(NS(C)(=O)=O)ccc21 [Compound 24]
## Output 6.11

## Input Field: pIC50 (TEAD3 (Homo sapiens, UniProt Q99594)). Entry: Cc1cn(Cc2ccc(Cl)cc2)c2cc(NS(=O)(=O)C3CC3)ccc12 [Compound 23]
## Output 6.08

## Input Request - read-out pIC50 | tested on TEAD3 (Homo sapiens, UniProt Q99594) | molecule COc1ccc(C(=O)NC(C)CCO)cc1/C=C/c1ccc(Cl)cc1 (single isomer, unassigned) [Compound 51]
## Output 5.70

## Input Please tell me: pIC50 of CC[C@H](CO)NC(=O)c1cc(/C=C/C2CC3(CC3)C2)c(OC)nn1 [Compound 47] , system TEAD3 (Homo sapiens, UniProt Q99594)?
## Output 6.07

## Input Any idea what pIC50 came out for COc1ccc(NS(=O)(=O)C2CC2)cc1/C=C/C1CCCCC1 [Compound 28] on TEAD3 (Homo sapiens, UniProt Q99594)?
## Output 6.00

## Input Which measured pIC50 belongs to COc1ccc(NS(C)(=O)=O)cc1C1CC1C1CCCCC1 (single isomer, unassigned) [Compound 1B] , tested on TEAD3 (Homo sapiens, UniProt Q99594)?
## Output 5.74

## Input Lab note: need pIC50 with TEAD3 (Homo sapiens, UniProt Q99594) for entry CCOc1ncc(NS(C)(=O)=O)cc1/C=C/C1CCC(F)(F)CC1 [Compound 18] , please look it up.
## Output 5.92

## Input Tell me reported pIC50 for COc1cc(F)c(NS(C)(=O)=O)cc1-c1ccc(C(C)C)cc1 [Compound 12] , tested with TEAD3 (Homo sapiens, UniProt Q99594).
## Output 6.07

## Input Lab note: need pIC50 for COc1cnc(C(=O)NC[C@H](O)CO)cc1/C=C/C1CC2(CC2)C1 [Compound 43] on TEAD3 (Homo sapiens, UniProt Q99594), anyone have it?
## Output 5.77

## Input Form field: pIC50 recorded for COc1ncc(NS(C)(=O)=O)cc1/C=C/CC(C)C [Compound 15] with TEAD3 (Homo sapiens, UniProt Q99594) (enter value)
## Output 5.70

## Input Report pIC50 for COc1ccc(NS(=O)(=O)C2CC2)cc1/C=C/c1ccc(Cl)cc1 [Compound 49] tested on TEAD3 (Homo sapiens, UniProt Q99594).
## Output 5.72

## Input Request - read-out pIC50 | tested on TEAD3 (Homo sapiens, UniProt Q99594) | molecule COc1ccc(NS(=O)(=O)C2CC2)cc1/C=C/Cc1ccccc1 [Compound 33]
## Output 5.92

## Input Recall the recorded pIC50 for COc1cc(F)c(NS(=O)(=O)C2CC2)cc1/C=C/c1ccc(Cl)cc1 [Compound 10] with TEAD3 (Homo sapiens, UniProt Q99594) and state it.
## Output 5.72

## Input Record lookup: for TEAD3 (Homo sapiens, UniProt Q99594), what pIC50 belongs to COc1ccc(C(=O)NC(C)C)cc1[C@H]1C[C@H](c2ccc(Cl)cc2)C1 (single isomer, unassigned) [Compound 9A] ?
## Output 5.80

## Input Param readout= pIC50; system= TEAD3 (Homo sapiens, UniProt Q99594); entry= CC[C@H](CO)NC(=O)c1cc(/C=C/[C@H]2CC[C@H](C(F)(F)F)CC2)c(OC)cn1 [Compound 42] ; returns value.
## Output 6.11

## Input Return pIC50 measured with TEAD3 (Homo sapiens, UniProt Q99594) given this molecule: CC[C@H](CO)NC(=O)c1cc(/C=C/C2CCC(F)(F)CC2)c(OC)cn1 (racemic) [Compound 41]
## Output 5.96

----------
assay target: TEAD3 (Homo sapiens, UniProt Q99594)
experimental details: TEAD lipid assay (Lipid FP, Bodipy-C16 probe displacement)
Type: binding
condition set: fluorescence polarization, His-tagged TEAD, 60 minutes incubation
quantity: pIC50
# pIC50 = -log10(concentration in molar units)

1) COc1ccc(NS(C)(=O)=O)cc1/C=C/CC1CCCCC1 [Compound 4]	5.89

## Input # value lookup — system TEAD3 (Homo sapiens, UniProt Q99594), readout pIC50, item COc1ncc(NS(C)(=O)=O)cc1C1CC(c2ccc(Cl)cc2)C1 (centres unmarked) [Compound 13]
## Output 5.74

## Input Under TEAD3 (Homo sapiens, UniProt Q99594): pIC50 value of COc1ccc(NS(C)(=O)=O)cc1/C=C/C1CCCC1 [Compound 3] ?
## Output 5.74

## Input Query pIC50 on TEAD3 (Homo sapiens, UniProt Q99594) for COc1cnc(NS(C)(=O)=O)cc1/C=C/C1(F)CCC(F)(F)CC1 [Compound 20]
## Output 6.12

## Input Which measured pIC50 belongs to CC[C@H](CO)NC(=O)c1cnc(OC)c(/C=C/C2CCC(F)(F)CC2)c1 (racemic) [Compound 35] , tested on TEAD3 (Homo sapiens, UniProt Q99594)?
## Output 5.85

Data origin, for the record: patent US20210188775A1
